Molecular target: SpCyk3
Experiment: SPOT peptide array binding signal intensity (averaged, normalized) (arbitrary units (background-subtracted, floor 0; scale differs between SH3 domains)); higher = stronger binding of the SH3 domain to the peptide
reported_metric: SPOT peptide array binding signal intensity

Ask: # query: SPOT peptide array binding signal intensity of entry DHPKGPPPPPPPDEK
Result: ≤ 0

Ask: # query: SPOT peptide array binding signal intensity of entry LLGRKRPVMERVVDI
Result: 1

Ask: # query: SPOT peptide array binding signal intensity of entry QPWTDQFEKLEKEVS
Result: ≤ 0

Ask: # query: SPOT peptide array binding signal intensity of entry LYEAMPPTLPHRDWK
Result: 3

Ask: # query: SPOT peptide array binding signal intensity of entry LYKRKPILLPDPKPL
Result: ≤ 0

Ask: # query: SPOT peptide array binding signal intensity of entry QNTPPLPPKPKSPHL
Result: ≤ 0

Ask: # query: SPOT peptide array binding signal intensity of entry ALFRLSFFFPLDPAY
Result: 55

Ask: # query: SPOT peptide array binding signal intensity of entry KDKSRPPRPPPKPLH
Result: 1

Ask: # query: SPOT peptide array binding signal intensity of entry EQEEIAPSLPSRNSI
Result: ≤ 0

Ask: # query: SPOT peptide array binding signal intensity of entry VYTRTAFQIPGDDKI
Result: ≤ 0

Ask: # query: SPOT peptide array binding signal intensity of entry KKEKKPPKIPKKVYT
Result: ≤ 0

Ask: # query: SPOT peptide array binding signal intensity of entry DTIDNVKSKIQDKEG
Result: ≤ 0

Ask: # query: SPOT peptide array binding signal intensity of entry NLPKRKPPKLQGPFS
Result: 1

Ask: # query: SPOT peptide array binding signal intensity of entry GDHPKGPPPPPPPDE
Result: ≤ 0

Ask: # query: SPOT peptide array binding signal intensity of entry GRSRLFPHSPLGRSS
Result: ≤ 0

Data provenance is the supplement of paper PMC4466140.
